# Test system: CCRF-CEM leukemia
# assay_remarks: NCI tumour cell line growth inhibition, 48 h
Give measured TGI for each item. Keep answers brief.

Consider the compound N/N=C(/C(=O)Nc1cccc(Cl)c1)C(C(=O)c1ccc(O)cc1O)C1OC(=O)c2ccccc21 (stereo unspecified) and give its measured TGI.
> 100 µM

Cool, now `CC(=C(c1ccccc1)c1ccccc1)N1C(=O)CC(=O)N1C`
78.2 µM

Let us now turn to `CC(=O)Nc1ccc(S(=O)(=O)N/N=C/CN2C(=O)c3ccccc3C2=O)cc1`
> 100 µM

What do you get for OC(CCNC12CC3CC(CC(C3)C1)C2)c1ccccc1 (stereo unspecified) ?
> 100 µM

Quick one: CCCCOC(=O)C(NC(C(=O)OCCCC)c1cc(C(C)(C)C)c(O)c(C(C)(C)C)c1)c1cc(C(C)(C)C)c(O)c(C(C)(C)C)c1 (stereo unspecified)
> 100 µM

Repeat for the following compound: CC(=O)Oc1cc2c(cc1OC(C)=O)OCC(c1ccc(C)cc1)C2 (stereo unspecified)
26.8 µM

----------
# System: RXF 393 renal
# assay_remarks: NCI tumour cell line growth inhibition, 48 h
measure: TGI (µM)
Dear colleague, please return just the value in µM, with no unit written.

// TGI lookup, key: `O=C1C[C@@H](C(=O)OCc2ccccc2)NC(=O)C[C@@H](C(=O)OCc2ccccc2)NC(=O)C[C@@H](C(=O)OCc2ccccc2)N1`
41.8

Subsequent entry: `COc1cc([C@@H]2c3cc4c(cc3[C@@H](c3c(O)cc(O)c5c3O[C@H](c3ccc(O)c(O)c3)[C@@H](O)C5)[C@H]3COC(=O)[C@H]23)OCO4)cc(OC)c1OC`
3.28

Also, `O=C1Nc2ccc(Br)cc2C1=Nc1cccnc1` please.
29.1

----------
# Tested on: OVCAR-3 ovarian
# assay_remarks: NCI tumour cell line growth inhibition, 48 h; in the data active = GI50 below about 0.43 µM; inactive = the rest
Classes to choose from: True = active, False = inactive

Kindly provide the recorded test outcome for the following compound: `Cc1c(Cl)cccc1C(=O)Nc1nc2c(s1)CN(C(=O)c1ccc(C(F)(F)F)cc1)CC2`
True

For `Cn1ncnc1[C@H]1c2n[nH]c(=O)c3cc(F)cc(c23)N[C@@H]1c1ccc(F)cc1` then?
False

Now consider `CC[C@@]1(O)C(=O)OCc2c1cc1n(c2=O)Cc2cc3cc4c(cc3nc2-1)OCO4` .
True

Another compound to look at: `Cc1ccc(S(=O)(=O)c2c(COC(=O)c3cccc(C)c3)c(-c3ccccc3)nn2C)cc1`
False

Thanks! And CC1=C(C(=O)Nc2ccc3n[nH]c(C)c3c2)C(c2ccc(C(F)(F)F)cc2)CC(=O)N1 (stereo not drawn) ?
False

Quick one: `Cc1cc(C)nc(SC2=C(Nc3ccc(C)c(Cl)c3)C(=O)N(Cc3ccccc3)C2=O)n1`
False

Now the compound Nc1ncnc2c1N=C(c1ccc3c(c1)OCO3)CC(c1ccc([N+](=O)[O-])cc1)N2 (stereo not drawn)
False

Also need `CC1=C(c2cccc(O)c2)[C@H](c2ccc(OCCN3CC(CF)C3)cc2)Oc2ccc(O)cc21` , thanks.
False

Continue with C#CC#CC#CC#CC#CC#CC#CC#CCC1OCC(COC(=O)O[C@@H](C(=O)O[C@H]2C[C@@]3(O)[C@@H](OC(=O)c4ccccc4)[C@@H]4[C@]5(OC(C)=O)CO[C@@H]5C[C@H](O)[C@@]4(C)C(=O)[C@H](OC(C)=O)C(=C2C)C3(C)C)[C@@H](NC(=O)c2ccccc2)c2ccccc2)O1 (stereo partly drawn)
True

Also `COc1ccc(CCN2CC=Cn3c2nc2ccccc2c3=O)cc1` ?
True

Check `CCCCCCC[CH2][Sn]([CH2]CCCCCCC)([O]c1cccc2cccnc12)[O]c1cccc2cccnc12` too.
False

And then `Cc1cc2c(C(C)C)c(O)c(O)cc2c(O)c1-c1c(C)cc2c(C(C)C)c(O)c(O)cc2c1O` , what is it?
False

Okay, and `N#C/C(=C\c1ccsc1)c1nc2ccccc2o1` ?
False

Please do the same for Cc1ccccc1OCC(O)CN1CCN(c2ccc(Cl)cc2)CC1 (stereo not drawn) as well.
False

Ok, now `Cc1cc(NCCCN(C)C)c2ccc3c(ccc4c(NCCCN(C)C)cc(C)nc43)c2n1`
True

Similarly, `COc1ccc(C/C(C)=C(/c2ccc(OCCN3CCCCC3)cc2)c2ccc(OC(=O)NCc3ccccc3)cc2)cc1` ?
True

Input `COc1cc2nc(N3CCCC3)nc(NCc3ccccc3)c2cc1OC`
False

Note, next up: `COc1cccc(-c2c[nH]c3c(N/N=C/c4ccncc4)ncnc23)c1`
False

----------
Kindly supply the reported TGI values for the records listed here.
# System: SNB-78 CNS
# assay_remarks: NCI tumour cell line growth inhibition, 48 h

Any idea what its TGI is? The molecule is `O=C1C(c2ccccc2)=C(O)c2cccc3cccc1c23`
> 100 µM

// same read-out, input: `COc1cc2c[n+](C)c3c4cc(OC)c(OC(C)C)cc4ccc3c2cc1OC`
> 100 µM

Follow-up item: `COc1cc2ccnc3c2c(c1OC)-c1coc(SC)c1-3`
> 100 µM

Continue with `C=C/C=C/NC(=O)OCc1ccccc1`
> 100 µM

Now this one: `CSc1nnc(CCC(=O)Nc2c(C)cccc2C)o1`
> 100 µM

Lookup O=C1CCCCC1S(=O)(=O)c1ccccc1 (configuration not stated)
> 100 µM

Lookup `CCOc1cc2c(C(=O)CC)c(O)ccc2o1`
> 100 µM

Consider next the molecule O=C(c1ccc(Cl)cc1Cl)C1[C@H]2C(=O)N(c3ccc(Cc4ccc(N5C(=O)[C@@H]6ON(c7ccccc7)C(C(=O)c7ccc(Cl)cc7Cl)[C@@H]6C5=O)cc4)cc3)C(=O)[C@H]2ON1c1ccccc1 (some centres not stated) in the same way.
> 50 µM

CN(C(=O)C12C3C4C1C1C2C3C41C(N)=O)C(C)(C)C (configuration not stated) , same question.
> 100 µM

Entry `COc1c(O)c(C=O)c2c(O)c(-c3c(C)cc4c(C(C)C)c(OC)c(O)c(C=O)c4c3O)c(C)cc2c1C(C)C` please
52.3 µM

Would you mind doing `Cc1nc(Nc2ccccc2)sc1C(=O)CC(=O)C(=O)Nc1c(C(C)C)cccc1C(C)C` as well?
> 100 µM

Cool, now OC(CCNC12CC3CC(CC(C3)C1)C2)c1ccccc1 (configuration not stated)
> 100 µM

----------
# Test system: MCF7 breast
# assay_remarks: NCI tumour cell line growth inhibition, 48 h; in the data active = GI50 below about 0.43 µM; inactive = the rest
Could you please pick one outcome from this set? 1 for active, 0 for inactive

For this compound, state the assay outcome: O=C1OCC2=C1C(c1cccc(Cl)c1)c1cc3c(cc1N2CCO)OCCO3 (stereo not given)
1

Next: `O=C(N/N=C/C=C/c1ccc([N+](=O)[O-])o1)c1cc2ccccc2cc1O`
0

Another compound to check: `COc1ccc(C/C(C)=C(/c2ccc(OCCN3CCCCC3)cc2)c2ccc(OC(=O)NCc3ccccc3)cc2)cc1`
1

Next compound: `N#C/C(=C\c1ccsc1)c1nc2ccccc2o1`
0

How about this compound: `O=C(Nc1ccc(Br)cc1F)c1cc(I)ccc1O`
0

// same read-out, input: Cc1ccccc1OCC(O)CN1CCN(c2ccc(Cl)cc2)CC1 (stereo not given)
0

Cool, now `Cc1ccc(S(=O)(=O)c2c(COC(=O)c3cccc(C)c3)c(-c3ccccc3)nn2C)cc1`
0

Moving on to the next compound: `O=C(Nc1cccc(-n2cc(-c3ccncc3)c(-c3ccc(Cl)c(O)c3)n2)c1)Nc1cc(C(F)(F)F)cc(C(F)(F)F)c1`
0

Query `O=C1C(Nc2ccc(Cl)cc2)=C(I)C(=O)c2ncccc21` next
1

----------
# Tested on: MDA-MB-435
measure: GI50

Quick one: GI50 for `COc1ccc2c(CN3CCCC[C@H]3C(=O)O)cc3cc4c(cc3c2c1)OCO4` ?
1.05 µM

Item: `O=C(Nc1ccc(Br)cc1F)c1cc(I)ccc1O`
3.04 µM

And the next one, `O=C(/C=C/Sc1cc(C(F)(F)F)cc(C(F)(F)F)c1)c1ccc(Cl)cc1` ?
4.22 µM

Follow-up entry: COc1ccc2c(c1)NC1=C(C(=O)OC1)C2c1cc(OC)c2c(c1)OCO2 (stereo not given)
< 0.0123 µM

Do the same for O=C1OCC2=C1C(c1cccc(Cl)c1)c1cc3c(cc1N2CCO)OCCO3 (stereo not given) please
0.0236 µM

----------
# Tested on: SK-MEL-5 melanoma
# assay_remarks: NCI tumour cell line growth inhibition, 48 h
measure: GI50

Endpoint output: GI50 of C#CC#CC#CC#CC#CC#CC#CC#CCC1OCC(COC(=O)O[C@@H](C(=O)O[C@H]2C[C@@]3(O)[C@@H](OC(=O)c4ccccc4)[C@@H]4[C@]5(OC(C)=O)CO[C@@H]5C[C@H](O)[C@@]4(C)C(=O)[C@H](OC(C)=O)C(=C2C)C3(C)C)[C@@H](NC(=O)c2ccccc2)c2ccccc2)O1 (stereo partly drawn) . Value?
671 nM

What about C=C1C(O)C2C(=C(CC)C13CC3)C(=O)C(C)(C)C2OC (stereo not drawn) ?
42600 nM

Now try `N#C/C(=C\c1ccsc1)c1nc2ccccc2o1` .
58800 nM

Lookup `O=C(Nc1cccc(-n2cc(-c3ccncc3)c(-c3ccc(Cl)c(O)c3)n2)c1)Nc1cc(C(F)(F)F)cc(C(F)(F)F)c1`
604 nM

Here is the next molecule: `Cc1cc(NCCCN(C)C)c2ccc3c(ccc4c(NCCCN(C)C)cc(C)nc43)c2n1`
275 nM

Consider next the molecule `O=C1C(Nc2ccc(Cl)cc2)=C(I)C(=O)c2ncccc21` in the same way.
1550 nM

Do the same for `Cn1ncnc1[C@H]1c2n[nH]c(=O)c3cc(F)cc(c23)N[C@@H]1c1ccc(F)cc1` please
> 100000 nM

Same question, `C=C(C)[C@@H]1CC[C@]2(C(=O)N[C@H](CO)Cc3ccccc3)CC[C@]3(C)[C@H](CC[C@@H]4[C@@]5(C)CCCNC(C)(C)[C@@H]5CC[C@]43C)[C@@H]12` this time
1670 nM

Now the molecule `Cc1cc(F)ccc1S(=O)(=O)Nc1cc(-c2c(O)ccc3ccccc23)c(O)c2ccccc12`
1770 nM

Now this one: `CCCCOC(=O)N1CCN(/[N+]([O-])=N/Oc2ccc([N+](=O)[O-])cc2[N+](=O)[O-])CC1`
4910 nM

Same read-out for `Cc1ccc(S(=O)(=O)c2c(COC(=O)c3cccc(C)c3)c(-c3ccccc3)nn2C)cc1` ?
> 100000 nM

Also `Cc1[nH]c2ccccc2c1CCCO` ?
> 100000 nM

Query Nc1ncnc2c1N=C(c1ccc3c(c1)OCO3)CC(c1ccc([N+](=O)[O-])cc1)N2 (stereo not drawn) next
82900 nM

Where these numbers come from: PubChem BioAssay (NCI)
